molecular target: nLucOGG1 in HeLa cells (Homo sapiens, UniProt O15527); construct: thermal shift read by NanoGlo luminescence; test: Cellular Thermal Shift Assay to measure compound affinity for nLucOGG1 in HeLa cells (CETSA DTm); format: cell-based; conditions: 10 μM compound, 37° C. 60 min, Tm vs DMSO control
Sequence (O15527 whole entry): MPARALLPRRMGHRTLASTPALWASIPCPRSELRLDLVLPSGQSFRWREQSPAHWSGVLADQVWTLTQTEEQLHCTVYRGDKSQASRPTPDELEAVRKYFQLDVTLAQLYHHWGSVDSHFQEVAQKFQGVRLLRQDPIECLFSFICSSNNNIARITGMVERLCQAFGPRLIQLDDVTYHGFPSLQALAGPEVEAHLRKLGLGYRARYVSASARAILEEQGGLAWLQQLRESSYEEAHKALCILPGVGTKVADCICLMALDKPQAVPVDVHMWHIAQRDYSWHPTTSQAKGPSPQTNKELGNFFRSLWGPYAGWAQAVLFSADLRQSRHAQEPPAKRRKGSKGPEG
Measured ΔTm at 10 µM, listed per entry.
recorded metric: ΔTm at 10 µM

compound: COc1cc(NC(=O)[C@]2(C)CC[C@H](N3Cc4c(C)ccc(OC)c4NC3=O)CC2)ccc1C [Example 13]
recorded metric: ΔTm at 10 µM
recorded value: 8 to 10 °C
//
compound: COc1cc(NC(=O)[C@H]2CC[C@@H](N3Cc4c(C)ccc(CNC(C)=O)c4NC3=O)CC2)ccc1C [Example 17]
recorded metric: ΔTm at 10 µM
recorded value: > 10 °C
//
compound: COc1cc(NC(=O)[C@H]2CC[C@@H](N3Cc4c(C)ccc(OCC5CNC5)c4NC3=O)CC2)ccc1C [Example 44]
recorded metric: ΔTm at 10 µM
recorded value: 8 to 10 °C
//
compound: COc1ccc(NC(=O)[C@]2(C)CC[C@H](N3Cc4c(C)cccc4NC3=O)CC2)cc1Cl (single isomer, unassigned) [Example 103]
recorded metric: ΔTm at 10 µM
recorded value: 8 to 10 °C
